measurement-description: qHTS RealTime-Glo MT Cell Viability Assay in HepG2 cells - 40 hour (AID 1224870); further: nearly all actives have a fitted effect of over 50% in size
cond: RealTime-Glo luminescence; series mostly up to 76.8 µM
Inconclusive results are not listed. The source made the active and inactive calls. The call rests on the fitted dose curve; in most records, active means well fitted cell-killing curve with a large enough effect in the repeat runs; inconclusive means weak or mixed curves, or effect the other way; inactive means flat fitted curve, though single readings scatter.
observable: outcome

# annotated cases, reported outcome shown
> print(dat)
                                   molecule  observable    result
1                      O=C(O)CCCCCCCCC(=O)O     outcome  inactive
2                               CCCCCC(=O)O     outcome  inactive
3                        C=C(C)C(=O)OCC(C)C     outcome  inactive
4  CC1(C)S[C@@H]2[C@H](NC(=O)COc3ccccc3)C(=O)N2[C@H]1C(=O)O     outcome  inactive
5                               NCCN1CCNCC1     outcome  inactive

Exam item: Requested read-out: outcome. Entry: O=C(OCC1CCC2OC2C1)C1CCC2OC2C1 (stereo not drawn)
Marked response: inactive

Exam item: I have this molecule here, `Cc1ccc([N+](=O)[O-])cc1S(=O)(=O)O` , and I need its recorded outcome.
Marked response: inactive

Exam item: Dear colleague, I am looking for the recorded outcome of the following molecule: `CC(=O)CCC=C(C)C`
Marked response: inactive

Exam item: Requested read-out: outcome. Entry: `COc1cc(OC)c(C(=O)CCCN2CCCC2)c(OC)c1`
Marked response: inactive

Exam item: If you can, please state the reported outcome value of CC(C)CC(=O)CC(C)CC(C)C (stereo not drawn) .
Marked response: inactive

Exam item: Data request, read-out outcome, for `CCCCCCCC=O`
Marked response: inactive

====

assay-system: Peroxisome proliferator-activated receptor delta (Homo sapiens) (UniProt Q03181)
Sequence (Q03181 whole entry, looked up): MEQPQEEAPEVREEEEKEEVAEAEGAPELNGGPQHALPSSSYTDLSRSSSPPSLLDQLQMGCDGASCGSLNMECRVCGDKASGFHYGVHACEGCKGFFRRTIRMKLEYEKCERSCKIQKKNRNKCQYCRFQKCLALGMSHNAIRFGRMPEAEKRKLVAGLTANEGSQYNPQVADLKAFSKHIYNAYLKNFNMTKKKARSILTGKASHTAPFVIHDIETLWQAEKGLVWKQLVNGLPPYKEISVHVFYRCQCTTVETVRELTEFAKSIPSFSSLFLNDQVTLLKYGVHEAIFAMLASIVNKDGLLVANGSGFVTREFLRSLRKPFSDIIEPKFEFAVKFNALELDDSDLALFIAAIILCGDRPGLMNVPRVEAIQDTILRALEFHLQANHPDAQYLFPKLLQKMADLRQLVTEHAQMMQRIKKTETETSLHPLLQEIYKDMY
measurement-description: qHTS assay to identify small molecule agonists of the peroxisome proliferator-activated receptor delta (PPARd) signaling pathway (AID 743212);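 further: HEK293H cells with PPARd UAS beta-lactamase reporter GeneBLAzer system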
cond: HEK293H PPARd-UAS-bla, beta-lactamase FRET ratio, 17 h; series mostly up to 62.6 µM
Inconclusive results are not listed. Calls of active or inactive are those of the source. Calls come from the whole dose curve.
observable: outcome

Take a look at these entries with their results.
> print(dat)
                                   molecule  observable    result
1                               NCCN1CCNCC1     outcome  inactive
2                         O=C(O)/C=C/C(=O)O     outcome  inactive
3                            CCNc1cccc(C)c1     outcome  inactive
4  CC(C)CC(=O)CC(C)CC(C)C (configuration not stated)     outcome  inactive
5                        C=CC[N+](C)(C)CC=C     outcome  inactive

Exam item: Please report the recorded outcome for `C=Cc1ccc(C)cc1` .
Marked response: inactive

Exam item: Could you tell me which outcome is on file for `O=[N+]([O-])c1ccc2nc[nH]c2c1` ?
Marked response: inactive

Exam item: What value of outcome has been reported for the following molecule? `CC(C)c1cccc(C(C)C)c1`
Marked response: inactive

Exam item: Query: outcome; subject: C=CC(C)CCCC(C)(C)O (configuration not stated)
Marked response: inactive

Exam item: What does the record list as outcome for `Cc1ccc2ncccc2c1` ?
Marked response: inactive

Exam item: Can you look up the measured outcome of `COc1ccc([N+](=O)[O-])cc1N` for me?
Marked response: inactive

Exam item: # query: outcome of entry `COc1cc(OC)c(C(=O)CCCN2CCCC2)c(OC)c1`
Marked response: inactive

Exam item: Look up outcome: `CCCCCCCCCCN`
Marked response: inactive

Exam item: Which value of outcome has been reported for `Clc1ccccn1` in the records?
Marked response: inactive

Exam item: For the molecule `CC(C)=CCl` , what outcome is on record?
Marked response: inactive

Exam item: Entry `CC(C)OC(=O)COc1ccc(Cl)cc1Cl` : reported outcome = ?
Marked response: inactive

Exam item: Look at this molecule and give its reported outcome. `NCCCCCCN`
Marked response: inactive
